The values you see were collected from the supplement of paper PMC9170038.

- System: K4 kissing-loop RNA reporter;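 further: bound reporter read as fluorescence of individual clusters on recovered sequencing chips by microscopy, with normalized cluster intensities fitted with a binding model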
- ASSAY_COMMENT: apparent KD of K4 kissing-loop reporter; higher = weaker reporter binding
- DETAILS: Eterna round: R107; input ligand: arginine 13.2 mM
Given measured apparent KD of K4 kissing-loop reporter, output t if it is greater than or equal to 200 nM and f if not.

INSERT INTO results (sequence_code, target, class) VALUES
  ('UGACAUUGCUCAGAUACCAGACUUGAGGAUCACCCAAGUGCCAAAUAAACGUACAUAAAAGUCCCUUGGCAGCUGAGCAAUGUCU [TheoBX 11]', 'K4 kissing-loop RNA reporter', 'f'),
  ('UAGUUGCCGGUUUGUAGGCUUCGGCAGUGGGAGGAUAUGUUGACCGACAGAAGGCCCAGUGAUGUUGGGCGAUUGGCGGUGAGAU [Antebear]', 'K4 kissing-loop RNA reporter', 'f'),
  ('CUUAAGACAUGAGUGAUGUUCAUGUCCGAAGGAGCGUGCGAAAGCACAGGUAGGUCGCGGACGUGAGUGAUGUUCAUGUAAGCGA [KL-XArg-A11 #analogue]', 'K4 kissing-loop RNA reporter', 'f');

Attention now turns to another entry.
Prompt line: Does the sequence AAGUCAUAGGCAGGAUAUGCUUAGUAAUAAGGCCAUAUAUACGUAUAGAGUGAUGUUUUGUACCAGGCAGAAGGGCUACAUCAGU [FMN B Excl V8 (+2A)] have recorded apparent KD of K4 kissing-loop reporter that is 200 nM or more?
Response line: t
